Source of measurements: paper PMC5823406

- Assay protocol: Whole-blood PK study (IV, IP and PO) in male CD-1 mice
- Assay type: in vivo, mouse
- Condition notes: male, CD-1, whole blood; mouse blood, PO 10 mg/kg, individual animals 7-9
Experimental readout: Tmax (min)

- Compound: "COc1cc(C(=O)/C=C/c2ccc(F)cc2)cc(OC)c1OC [C16, 4-fluoro-3’,4’,5’-trimethoxychalcone]"
  Measurement unit: "min"
  Reported: 15

---

- Assay protocol: Whole blood stability
- Format: in vitro ADME, rat
- Condition notes: male, Sprague-Dawley, rat, fresh whole blood, male Sprague-Dawley rat blood, Both Isomers integrated; read-out: t1/2

- Compound string: "COc1cc(C(=O)/C=C/c2ccc(F)cc2)cc(OC)c1OC"
  Measurement unit: "min"
  half-life at 1 μM: 5.76

---

- Assay protocol: Plasma PK study (IV and PO) in male Sprague-Dawley rats
- Format: in vivo, rat
- Condition notes: male, Sprague-Dawley, rat, plasma, iv, 1 mg/kg, plasma, male Sprague-Dawley rat, IV 1 mg/kg, vehicle DMSO, average; read-out: Vss

- Compound string: "COc1cc(C(=O)/C=C/c2ccc(F)cc2)cc(OC)c1OC"
  Vd (L/kg): 4.77

---

- Assay protocol: Liver microsome stability
- Format: in vitro ADME
- Condition notes: liver microsomes (rat, Sprague-Dawley)
Experimental readout: half-life at 0.1 μM (min)

- Compound string: "COc1cc(C(=O)/C=C/c2ccc(F)cc2)cc(OC)c1OC"
  Reported: 20

---

- Assay protocol: Whole-blood PK study (IV, IP and PO) in male CD-1 mice
- Type: in vivo, mouse
- Condition notes: male, CD-1, mouse, whole blood, iv, 1 mg/kg, mouse, IV 1 mg/kg, 0.25 h, animals 1-3; read-out: Individual blood concentration

- Compound: "COc1cc(C(=O)/C=C/c2ccc(F)cc2)cc(OC)c1OC [C16, 4-fluoro-3’,4’,5’-trimethoxychalcone]"
  concentration at 0.25 h: "0.0173 µg/mL"

---

- Assay protocol: Plasma PK study (IV and PO) in male Sprague-Dawley rats
- Assay type: in vivo, rat
- Condition notes: male, Sprague-Dawley, rat, plasma, po, 10 mg/kg, male Sprague-Dawley rat, PO 10 mg/kg, vehicle DMSO, average
- Protocol: Six male Sprague-Dawley rats (200–350 g) were obtained from Hilltop Labs. Animals were assigned randomly to two groups (IV or PO) of 3 upon arrival. Duration of acclimation was approximately two days. Animals were healthy at the start of the trial. […] Pharmacokinetic parameters were estimated by a non-compartmental model using WinNonlin (v5.2.1 or higher) software. […] Plasma/blood half-life (t1/2) was calculated from 0.693/slope of the terminal elimination phase. […] Clearance (CL) was calculated from dose/AUC. […]
Experimental readout: AUC(0-t) (ng·h/mL)

- Compound string: "COc1cc(C(=O)/C=C/c2ccc(F)cc2)cc(OC)c1OC"
  Experimental readout: "AUC(0-t)"
  Measurement unit: "ng·h/mL"
  Reported: 146

---

- Assay protocol: Whole-blood PK study (IV, IP and PO) in male CD-1 mice
- Assay type: in vivo, mouse
- Condition notes: male, CD-1, mouse, whole blood, iv, 1 mg/kg, mouse blood, IV 1 mg/kg, individual animals 1-3
- Procedure: Nine male CD-1 mice (25–35 g) were obtained from Hilltop Labs. Duration of acclimation was at least two days. […] Blood samples were taken pre-dose and 5 (except for PO administration), 15, 30 min, 1, 2, 4, and 8 h after dosing. […] The sample was pipetted up and down five times, immediately frozen on dry ice and stored at -60°C to -80°C until analyzed. […] c Bioavailability determined by dividing the individual dose normalized oral AUC last by the average dose normalized intravenous AUC last value. […]
Experimental readout: AUC(0-inf) (ng·h/mL)

- Compound string: "COc1cc(C(=O)/C=C/c2ccc(F)cc2)cc(OC)c1OC"
  Reported: 22.9

---

- Assay protocol: Plasma PK study (IV and PO) in male Sprague-Dawley rats
- Type: in vivo, rat
- Condition notes: male, Sprague-Dawley, rat, plasma, iv, 1 mg/kg, male Sprague-Dawley rat, IV 1 mg/kg, vehicle DMSO, average

- Molecule: "COc1cc(C(=O)/C=C/c2ccc(F)cc2)cc(OC)c1OC [C16, 4-fluoro-3’,4’,5’-trimethoxychalcone]"
  clearance: "82.5 mL/min/kg"

---

- Assay protocol: Plasma PK study (IV and PO) in male Sprague-Dawley rats
- Assay type: in vivo, rat
- Condition notes: male, Sprague-Dawley, rat, plasma, po, 10 mg/kg, plasma, male Sprague-Dawley rat, PO 10 mg/kg, vehicle DMSO, average; read-out: tmax
Experimental readout: Tmax (h)

- Molecule: "COc1cc(C(=O)/C=C/c2ccc(F)cc2)cc(OC)c1OC [C16, 4-fluoro-3’,4’,5’-trimethoxychalcone]"
  Reported: 2.83

---

- Assay protocol: Whole-blood PK study (IV, IP and PO) in male CD-1 mice
- Type: in vivo, mouse
- Condition notes: male, CD-1, mouse, whole blood, po, 10 mg/kg, whole blood, male CD-1 mouse, PO 10 mg/kg, average; read-out: Bioavailability

- Compound string: "COc1cc(C(=O)/C=C/c2ccc(F)cc2)cc(OC)c1OC"
  Bioavailability / %: 10.5

---

- Assay protocol: Plasma PK study (IV and PO) in male Sprague-Dawley rats
- Format: in vivo, rat
- Condition notes: male, Sprague-Dawley, rat, plasma, iv, 1 mg/kg, rat plasma, IV 1 mg/kg, individual animals 1-3

- Compound string: "COc1cc(C(=O)/C=C/c2ccc(F)cc2)cc(OC)c1OC"
  AUC(0-inf) [ng·h/mL]: 227

---

- Assay protocol: Protein binding and recovery
- Assay type: in vitro ADME
- Condition notes: Human plasma

- Compound string: "COc1cc(C(=O)/C=C/c2ccc(F)cc2)cc(OC)c1OC"
  fraction unbound at 100 μM: 0.01

---

- Assay protocol: Whole-blood PK study (IV, IP and PO) in male CD-1 mice
- Type: in vivo, mouse
- Condition notes: male, CD-1, mouse, whole blood, iv, 1 mg/kg, mouse blood, IV 1 mg/kg, individual animals 1-3

- Compound: "COc1cc(C(=O)/C=C/c2ccc(F)cc2)cc(OC)c1OC [C16, 4-fluoro-3’,4’,5’-trimethoxychalcone]"
  half-life / min: 49.4

---

- Assay protocol: Plasma PK study (IV and PO) in male Sprague-Dawley rats
- Assay type: in vivo, rat
- Condition notes: male, Sprague-Dawley, rat, plasma, iv, 1 mg/kg, rat plasma, IV 1 mg/kg, individual animals 1-3
Experimental readout: AUC(0-t) (ng·h/mL)

- Compound string: "COc1cc(C(=O)/C=C/c2ccc(F)cc2)cc(OC)c1OC"
  Measurement unit: "ng·h/mL"
  Reported: 224

---

- Assay protocol: Plasma PK study (IV and PO) in male Sprague-Dawley rats
- Format: in vivo, rat
- Condition notes: male, Sprague-Dawley, rat, plasma, iv, 1 mg/kg, male Sprague-Dawley rat, IV 1 mg/kg, vehicle DMSO, average

- Compound string: "COc1cc(C(=O)/C=C/c2ccc(F)cc2)cc(OC)c1OC"
  half-life (h): 1.93

---

- Assay protocol: Whole-blood PK study (IV, IP and PO) in male CD-1 mice
- Format: in vivo, mouse
- Condition notes: male, CD-1, mouse, whole blood, po, 10 mg/kg, mouse blood, PO 10 mg/kg, individual animal 7

- Compound string: "COc1cc(C(=O)/C=C/c2ccc(F)cc2)cc(OC)c1OC"
  half-life (h): 2.93

---

- Assay protocol: Whole-blood PK study (IV, IP and PO) in male CD-1 mice
- Type: in vivo, mouse
- Condition notes: male, CD-1, mouse, whole blood, ip, 10 mg/kg, mouse, IP 10 mg/kg, 1.0 h, animals 4-6; read-out: Individual blood concentration
- Method: Nine male CD-1 mice (25–35 g) were obtained from Hilltop Labs. Duration of acclimation was at least two days. […] Blood samples were taken pre-dose and 5 (except for PO administration), 15, 30 min, 1, 2, 4, and 8 h after dosing. […] The sample was pipetted up and down five times, immediately frozen on dry ice and stored at -60°C to -80°C until analyzed. […] c Bioavailability determined by dividing the individual dose normalized oral AUC last by the average dose normalized intravenous AUC last value. […]

- Compound string: "COc1cc(C(=O)/C=C/c2ccc(F)cc2)cc(OC)c1OC"
  concentration at 1 h (ng/mL): 49.2

---

- Assay protocol: Whole-blood PK study (IV, IP and PO) in male CD-1 mice
- Assay type: in vivo, mouse
- Condition notes: male, CD-1, mouse, whole blood, ip, 10 mg/kg, male CD-1 mouse, IP 10 mg/kg, average
- Experimental: Nine male CD-1 mice (25–35 g) were obtained from Hilltop Labs. Duration of acclimation was at least two days. […] Blood samples were taken pre-dose and 5 (except for PO administration), 15, 30 min, 1, 2, 4, and 8 h after dosing. […] The sample was pipetted up and down five times, immediately frozen on dry ice and stored at -60°C to -80°C until analyzed. […] c Bioavailability determined by dividing the individual dose normalized oral AUC last by the average dose normalized intravenous AUC last value. […]

- Compound string: "COc1cc(C(=O)/C=C/c2ccc(F)cc2)cc(OC)c1OC"
  AUC(0-t) (ng·h/mL): 109
